- experimentDescription: nfo promoter-lacZ induction (preferred kit, β-galactosidase)
- experimentalParameters: nfo promoter-lacz e. coli
readoutName: fold induction

[[record]]
testsmiles = "C[S+](C)[O-]"
readoutname = "fold induction"
result = 1.6


====

- experimentDescription: in vitro
- experimentalParameters: clpb promoter-lacz e. coli
readoutName: fold induction

[[record]]
molecule = "CN(C)C=O [N,N Dimethyl formamide]"
readoutname = "fold induction"
result = 2.5

[[record]]
molecule = "C[S+](C)[O-] [DMSO]"
readoutname = "fold induction"
result = 2

[[record]]
molecule = "ClC(Cl)Cl [Chloroform]"
readoutname = "fold induction"
result = 4.5

[[record]]
molecule = "Oc1ccccc1 [Phenol]"
readoutname = "fold induction"
result = 1.5

[[record]]
molecule = "CCCO [1-propanol]"
readoutname = "fold induction"
result = 5.6


====

- experimentDescription: soi28 promoter-lacZ induction (preferred kit, β-galactosidase)
- experimentalParameters: promoter-lacz bacterial strain
readoutName: fold induction

[[record]]
compound = "ClC(Cl)Cl [Chloroform]"
quantitativeresult = 2

[[record]]
compound = "CCO"
quantitativeresult = 1.7


====

- experimentDescription: micF promoter-lacZ induction (preferred kit, β-galactosidase)
- experimentalParameters: promoter-lacz bacterial strain
readoutName: fold induction

[[record]]
molecule = "CN(C)C=O [N,N Dimethyl formamide]"
readoutname = "fold induction"
quantitativeresult = 3.3

[[record]]
molecule = "CCO"
readoutname = "fold induction"
quantitativeresult = 2.5

[[record]]
molecule = "CCCO"
readoutname = "fold induction"
quantitativeresult = 4


====

- experimentDescription: in vitro
- experimentalParameters: clpb promoter-lacz e. coli
readoutName: fold induction at 2000 µM

[[record]]
molecule = "CC(C)(C)c1cc(O)ccc1O [Tert-butyl hydroquinone]"
result = 2.8


====

- experimentDescription: micF promoter-lacZ induction (preferred kit, β-galactosidase)
- experimentalParameters: promoter-lacz bacterial strain
readoutName: fold induction at 2000 µM

[[record]]
compound = "CC(C)(C)c1cc(O)ccc1O [Tert-butyl hydroquinone]"
readoutname = "fold induction at 2000 µM"
quantitativeresult = 2.6

